# Tested on: RARg:RXRa (NR concentration 270 nM, RXRa partner concentration 90 nM)
# Protocol Notes: PBM binding z-score (relative to random genomic background probes); higher = stronger binding; sequences stand for … in GC…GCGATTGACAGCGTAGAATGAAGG
Observation Type: PBM binding z-score
No unit in the answer, please; the number alone is enough.

Look up PBM binding z-score with RARg:RXRa (NR concentration 270 nM, RXRa partner concentration 90 nM) for this sequence: `CAAACTAGGTCAAGAGGTCCAAGTCCGCTTCCCG`
4.03

Query PBM binding z-score on RARg:RXRa (NR concentration 270 nM, RXRa partner concentration 90 nM) for `TGAATGAGCTTAAAGATCAGGGAACGTGGCGTCG`
-0.123

Form: Entry = `CCTATTAGTTGACCATAATGGCAACCGAAGCTCG` | System = RARg:RXRa (NR concentration 270 nM, RXRa partner concentration 90 nM) | PBM binding z-score = ____
0.589
